Target: PfPyrK (Plasmodium falciparum, UniProt C6KTA4)
Construct: gene PF3D7_0626800
Sequence (C6KTA4 1-511): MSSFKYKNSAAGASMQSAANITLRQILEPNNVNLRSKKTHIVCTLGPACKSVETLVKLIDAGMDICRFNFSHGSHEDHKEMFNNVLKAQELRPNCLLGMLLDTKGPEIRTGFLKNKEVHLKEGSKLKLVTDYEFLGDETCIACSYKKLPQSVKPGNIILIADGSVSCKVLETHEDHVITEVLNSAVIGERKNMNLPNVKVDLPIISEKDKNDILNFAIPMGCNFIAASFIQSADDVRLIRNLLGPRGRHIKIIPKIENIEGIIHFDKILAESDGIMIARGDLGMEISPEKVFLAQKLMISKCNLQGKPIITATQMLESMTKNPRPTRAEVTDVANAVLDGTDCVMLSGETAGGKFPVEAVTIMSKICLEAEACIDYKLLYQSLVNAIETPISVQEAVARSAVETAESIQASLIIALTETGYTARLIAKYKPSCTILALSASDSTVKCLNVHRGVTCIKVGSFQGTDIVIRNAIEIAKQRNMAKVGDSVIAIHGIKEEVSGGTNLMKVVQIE
Experiment: SPR (BIAcore)
Format: binding
Details: read-out: KCQ-PfPyrK
RECORDED_METRIC: pKd
Lab note — pKd values are minus log10 of concentrations in M.

Data request: Find pKd (PfPyrK (Plasmodium falciparum, UniProt C6KTA4)) for the entry CCN(CC)CCCC(C)Nc1ccnc2cc(Cl)ccc12 (stereo not shown) [CQ]
Data returned: 6.07

Data provenance: paper PMC9195458
